B1: library; a variant is named by its letters at N, in order (parent)
chain: GCUGUCACCGAGAAACUGUGAAGUAUAUCUUAAACCUGGGCACUUAAAAGAUAUAUGGAGUUAGUAGUGCAACCUGCUCGGUCUGAUGAGUCCNNNNNNGGACGAAACAGC

Variants of: B1
protocol-text: normalized RNA/DNA level without ligand (relative to sTRSVctl = 100) (log10 (% of sTRSVctl)); HEK293T; ligand: cyclic di-GMP (c-di-GMP-II aptamer); higher = less ribozyme self-cleavage, higher mRNA level
condition-summary: reporter: mCherry (pCS4076), ligand present: no
observed-property: normalized RNA/DNA level without ligand (log10)
// no unit string in output, number only

AUUUAA ... 1.58

// lookup normalized RNA/DNA level without ligand (log10) for `UUGCAU`
1.67
